# study.target: M7
# assay.remarks: ELISA on coated antigen, column M7
Here the recorded absorbance at 490 nm is given for each entry.
readout: absorbance at 490 nm

binder: PDL1-23E10 (scFv, V domains shown) VH: QMQLVESGAEVKKPGSSVKVSCKVSGENFRSHAISWVRQAPGQGLEWMGRIIPIVGLADYPQKFQGRVTISADESTGTAYMDLSSLRSEDTAVYYCVTGRPPWHWGQGILITVSS VL: QLVLTQPPSVSGAPGQRVTISCTGSSSNIGAGYDVHWYQQLPGTAPKLLIYSNRNRPSGVPDRFSGSKSGTSASLAITGLQAEDEADYYCQSYDSSLSGPNYVFGTGTKVTVL
readout: absorbance at 490 nm
reported.measurement: 2.3
--
binder: PDL1-27F8 (antibody, V domains shown, Only FR/CDR pieces are tied to the clone) VH: QVQLVQSGAEVKKPGSSVKVSCKASGGTFSSSAFSWVRQAPGHGLEWMGRIIPMFDMTDYAQRFQGRLTIIADESSSTAYMELSSLRSEDTAVYYCARSNPHYMDVWGQGTTVTVSS VL: QLVLTQPPSVSGAPGQRVTISCTGSNSDIGAGHDVHWYQQIPGTAPKVLIYGNTDRPSGVPDRFSGSKSGTSASLAITGLQAEDEADYYCQSYDSSLSGYVFGTGTKVTVL
readout: absorbance at 490 nm
reported.measurement: 3
--
binder: PDL1-11A7 (antibody, V domains shown, Only FR/CDR pieces are tied to the clone) VH: QVQLVQSGAEVKKPGASVKVSCKVSGYTLTELSMHWVRQAPGKGLEWMGGFDPEDGETIYAQKFQGRVTMTEDTSTDTAYMELSSLRSEDTAVYYCARDPWGGYYGMDVWGQGTTVTVSS VL: DIQMTQSPSSVSASVGDRVTINCRASQGIRTWLAWYQQKPGKAPKLLIYAASNLQSGVPSRFSGSGSGTDFTLTIASLQPEDFATYYCQQANSFPLTFGGGTKVEIK
readout: absorbance at 490 nm
reported.measurement: 2.5
--
binder: PDL1-30B1 (antibody, V domains shown, Only FR/CDR pieces are tied to the clone) VH: QVQLVESGGGVVQPGRSLRLSCAASGFTFSSYAMHWVRQGPGKGLEWVAVISYDGSNEFYADSVKGRFTISRDNSKNTLYLQMNSLRAEDTAVYYCARGDYNGVYMDVWGQGTTVTVSS VL: DIVMTQTPLSLSVTPGQPASISCKSSQSLLHSDGKTYLYWYLQKPGQSPQLLIYEVSKRFSGVPDRFSGSGSGTDFTLKIGRVEAEDVGVYYCMQGLHLPYTFGQGTKLEIK
readout: absorbance at 490 nm
reported.measurement: 2.7

All values here come from patent US20190322750A1.
